molecular target: 5-HT1A receptor (Rattus norvegicus (Rat)); experiment: Binding to 5-HT1A receptor ([3H]-8-OH-DPAT, rat cortical membranes); parameters: species or system Sprague-Dawley (SD) rats; conditions: 1 h; at 1 uM; read-out: 5-HT1A: Suppression
Sequence (P19327 whole entry): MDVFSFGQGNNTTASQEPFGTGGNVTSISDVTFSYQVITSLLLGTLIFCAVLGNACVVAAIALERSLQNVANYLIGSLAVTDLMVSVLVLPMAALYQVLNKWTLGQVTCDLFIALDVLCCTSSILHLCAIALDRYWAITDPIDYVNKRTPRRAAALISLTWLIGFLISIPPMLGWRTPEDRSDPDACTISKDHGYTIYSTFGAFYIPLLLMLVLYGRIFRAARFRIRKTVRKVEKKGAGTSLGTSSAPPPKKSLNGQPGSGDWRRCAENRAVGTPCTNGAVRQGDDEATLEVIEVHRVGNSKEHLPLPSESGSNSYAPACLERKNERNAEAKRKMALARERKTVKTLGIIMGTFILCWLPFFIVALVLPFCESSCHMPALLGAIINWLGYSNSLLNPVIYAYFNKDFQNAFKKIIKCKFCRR
Field: inhibition at 1 µM. Provide a value for each of the molecules that follow.
One number for each entry, in %.

Worked examples, 5 molecules total:
molecule="NC(=O)OC(CCN1CCN(c2ccccc2)CC1)c1ccc(Cl)cc1 (stereo not drawn)" target_or_test_system="5-HT1A receptor (Rattus norvegicus (Rat))" readout_kind="inhibition at 1 µM" val=64.6
molecule="NC(=O)OC(CCN1CCN(c2ccccc2)CC1)c1ccc(F)cc1 (stereo not drawn)" target_or_test_system="5-HT1A receptor (Rattus norvegicus (Rat))" readout_kind="inhibition at 1 µM" val=65.5
molecule="NC(=O)OC(CCN1CCN(c2ccccc2)CC1)c1ccc([N+](=O)[O-])cc1 (stereo not drawn)" target_or_test_system="5-HT1A receptor (Rattus norvegicus (Rat))" readout_kind="inhibition at 1 µM" val=81.4
molecule="CC(C)(C)c1ccc(C(CCN2CCN(c3ccccc3)CC2)OC(N)=O)cc1 (stereo not drawn)" target_or_test_system="5-HT1A receptor (Rattus norvegicus (Rat))" readout_kind="inhibition at 1 µM" val=44.4
molecule="NC(=O)OC(CCN1CCN(c2ccccc2)CC1)c1cccc([N+](=O)[O-])c1 (stereo not drawn)" target_or_test_system="5-HT1A receptor (Rattus norvegicus (Rat))" readout_kind="inhibition at 1 µM" val=74.6

Would you mind listing inhibition at 1 µM for each of the following molecules?
1. NC(=O)OC(CCN1CCN(c2ccc([N+](=O)[O-])cc2)CC1)c1ccc(F)cc1 (stereo not drawn)
2. NC(=O)OC(CCN1CCN(c2ccccc2)CC1)c1cccc(Cl)c1 (stereo not drawn)

29.6
76.4

// provenance: patent US8815852B2
